System: K98450-129-R-PDC complex spheroid growth, percent test/control
Assay: Anticancer human tumor K98450-129-R-PDC patient-derived colon adenocarcinoma cell line growth inhibition [RAS]
Settings: second compound 0.00949 µM; first compound 0.316 µM; active compounds read low
Reported viability, T/C values follow for various compounds

Compound | Tested On | viability, T/C
CC(C)NCC(C(=O)N1CCN(c2ncnc3c2C(C)CC3O)CC1)c1ccc(Cl)cc1 (configuration not stated) + CCn1c(-c2cccnc2C(C)OC)c2c3cc(ccc31)N1CCOC(CC(NC(=O)C(C(C)C)N(C)C(=O)C3(F)CCN(C(=O)C#CC(C)(C)N(C)C)CC3)C(=O)N3CCCC(N3)C(=O)OCC(C)(C)C2)C1 | K98450-129-R-PDC complex spheroid growth, percent test/control | 42.9%

Note: attention shifts to another entry.
**Query** Return reported viability, T/C. Input compound: CC(C)NCC(C(=O)N1CCN(c2ncnc3c2C(C)CC3O)CC1)c1ccc(Cl)cc1 (configuration not stated) + CCn1c(-c2cc(N3CCN(C)CC3)cnc2C(C)OC)c2c3cc(ccc31)-c1csc(n1)CC(NC(=O)C1CC1C)C(=O)N1CCCC(N1)C(=O)OCC(C)(C)C2
**Result** 70%

====

Tested on: K98450-129-R-PDC complex spheroid growth, percent test/control
Assay: Anticancer human tumor K98450-129-R-PDC cell line growth inhibition [RAS];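 further: luminescence used as a proxy for viable cell amount; spheroids exposed to agents for seven days before the viability readout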
Details: compound 0.1 µM; active compounds read low
Property Measured: viability, T/C

Compound | Tested On | viability, T/C
C=CC(=O)N1CCN(c2nc(OCC3CCCN3C)nc3c(F)c(-c4nc(N)cc(C)c4C(F)(F)F)c(Cl)cc23)C(C)C1 (stereo not given) | K98450-129-R-PDC complex spheroid growth, percent test/control | 53.1% [middle of 13 runs]

**Query** Return reported viability, T/C. Input compound: NC1c2ccccc2OC12CCN(c1cnc3c(N4CCCc5ncccc54)n[nH]c3n1)CC2 (stereo not given)
**Result** 67.2% [middle of 4 runs]

**Query** Return reported viability, T/C. Input compound: CC(Nc1ccc2c(c1)OCCn1cc(N3C(=O)OCC3C(F)F)nc1-2)C(N)=O (stereo not given)
**Result** 91.6% [middle of 4 runs]

**Query** Return reported viability, T/C. Input compound: CC1(O)CCCC1n1c(=O)c(C(F)F)cc2cnc(NC3CCN(S(C)(=O)=O)CC3)nc21 (stereo not given)
**Result** 95.5% [middle of 4 runs]

**Query** Return reported viability, T/C. Input compound: C=CC(=O)Nc1cc(Nc2nccc(-c3cn(C)c4ccccc34)n2)c(OC)cc1N(C)CCN(C)C
**Result** 100% [middle of 4 runs]

====

Reported viability, T/C values follow for various compounds
Tested on: K98450-129-R-PDC complex spheroid growth, percent test/control
Assay: Anticancer human tumor K98450-129-R-PDC cell line growth inhibition [RAS];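 further: luminescence used as a proxy for viable cell amount; spheroids exposed to agents for seven days before the viability readout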
Details: second compound 0.00949 µM; first compound 0.1 µM; active compounds read low
Response body: numeric value in %, unit text excluded.

**Query** Return reported viability, T/C. Input compound: C[C@@H](NC(=O)c1ncnc(N)c1Cl)c1ncc(C(=O)Nc2cc(C(F)(F)F)c(Cl)cn2)s1 + CCn1c(-c2cccnc2C(C)OC)c2c3cc(ccc31)N1CCOC(CC(NC(=O)C(C(C)C)N(C)C(=O)C3(F)CCN(C(=O)C#CC(C)(C)N(C)C)CC3)C(=O)N3CCCC(N3)C(=O)OCC(C)(C)C2)C1
**Result** 55

**Query** Return reported viability, T/C. Input compound: C=CC(=O)Nc1cc(Nc2nccc(-c3cn(C)c4ccccc34)n2)c(OC)cc1N(C)CCN(C)C + CCn1c(-c2cc(N3CCN(C)CC3)cnc2C(C)OC)c2c3cc(ccc31)-c1csc(n1)CC(NC(=O)C1CC1C)C(=O)N1CCCC(N1)C(=O)OCC(C)(C)C2
**Result** 49

**Query** Return reported viability, T/C. Input compound: CC(C)NCC(C(=O)N1CCN(c2ncnc3c2C(C)CC3O)CC1)c1ccc(Cl)cc1 (centres undefined) + CCn1c(-c2cc(N3CCN(C)CC3)cnc2C(C)OC)c2c3cc(ccc31)-c1csc(n1)CC(NC(=O)C1CC1C)C(=O)N1CCCC(N1)C(=O)OCC(C)(C)C2
**Result** 67

**Query** Return reported viability, T/C. Input compound: CCN1CCN(Cc2ccc(Nc3ncc(F)c(-c4cc(F)c5nc(C)n(C(C)C)c5c4)n3)nc2)CC1 + CCn1c(-c2cccnc2C(C)OC)c2c3cc(ccc31)N1CCOC(CC(NC(=O)C(C(C)C)N(C)C(=O)C3(F)CCN(C(=O)C#CC(C)(C)N(C)C)CC3)C(=O)N3CCCC(N3)C(=O)OCC(C)(C)C2)C1
**Result** 34.5

====

System: K98450-129-R-PDC complex spheroid growth, percent test/control
Experiment: Anticancer human tumor K98450-129-R-PDC cell line growth inhibition [RAS];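 further: luminescence used as a proxy for viable cell amount; spheroids exposed to agents for seven days before the viability readout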
Conditions: second compound 0.0316 µM; first compound 0.03 µM; active compounds read low
Property Measured: viability, T/C (%)
Response body: numeric value in %, unit text excluded.

**Query** Return reported viability, T/C. Input compound: CCc1c2c(nc3ccc(O)cc13)-c1cc3c(c(=O)n1C2)COC(=O)[C@]3(O)CC + C#Cc1c(F)ccc2cc(O)cc(-c3ncc4c(N5CC6CCC(C5)N6)nc(OCC56CCCN5CC(F)C6)nc4c3F)c12
**Result** 52.2

**Query** Return reported viability, T/C. Input compound: CCc1c2c(nc3ccc(O)cc13)-c1cc3c(c(=O)n1C2)COC(=O)[C@]3(O)CC + C=CC(=O)N1CCN(c2nc(OCC3CCCN3C)nc3c(F)c(-c4nc(N)cc(C)c4C(F)(F)F)c(Cl)cc23)C(C)C1
**Result** 24.1

**Query** Return reported viability, T/C. Input compound: CC1(C)CCC(Nc2ncc(C(F)(F)F)c(-c3c[nH]c4c(P(C)(C)=O)c(C#N)ccc34)n2)CN1 (centres undefined) + C#Cc1c(F)ccc2cc(O)cc(-c3ncc4c(N5CC6CCC(C5)N6)nc(OCC56CCCN5CC(F)C6)nc4c3F)c12
**Result** 105

**Query** Return reported viability, T/C. Input compound: CC1(C)CCC(Nc2ncc(C(F)(F)F)c(-c3c[nH]c4c(P(C)(C)=O)c(C#N)ccc34)n2)CN1 (centres undefined) + C=CC(=O)N1CCN(c2nc(OCC3CCCN3C)nc3c(F)c(-c4nc(N)cc(C)c4C(F)(F)F)c(Cl)cc23)C(C)C1
**Result** 76

====

Tested on: K98450-129-R-PDC complex spheroid growth, percent test/control
Assay: Anticancer human tumor K98450-129-R-PDC cell line growth inhibition [RAS];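 further: luminescence used as a proxy for viable cell amount; spheroids exposed to agents for seven days before the viability readout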
Settings: second compound 0.003 µM; first compound 10 µM; active compounds read low
From the text: RAS pathway inhibitors in Combinations in Complex Spheroids A high-throughput screen of multi-cell type tumor spheroids was designed to identify active combinations of RAS pathway inhibitors and targeted small molecules. Complex spheroids include a stromal component modeled by human endothelial cells (HUVEC) and fibroblasts modeled by human mesenchymal stem cells (MSCs). […] Compounds. […] If the clinical Cmax for an agent had not been determined, the highest concentration tested was 10 microM. […]
Quick rule for you: viability, T/C under 50% gets true, anything else gets false.

Recorded results for 5 compounds are shown here.
Compound | Qualitative Label
CC(=O)OC12COC1CC(O)C1(C)C(=O)C(O)C3=C(C)C(OC(=O)C(O)C(NC(=O)OC(C)(C)C)c4ccccc4)CC(O)(C(OC(=O)c4ccccc4)C21)C3(C)C (stereo unspecified) + CCn1c(-c2cccnc2C(C)OC)c2c3cc(ccc31)N1CCOC(CC(NC(=O)C(C(C)C)N(C)C(=O)C3(F)CCN(C(=O)C#CC(C)(C)N(C)C)CC3)C(=O)N3CCCC(N3)C(=O)OCC(C)(C)C2)C1 | true
C[C@@H](NC(=O)c1ncnc(N)c1Cl)c1ncc(C(=O)Nc2cc(C(F)(F)F)c(Cl)cn2)s1 + CCn1c(-c2cccnc2C(C)OC)c2c3cc(ccc31)N1CCOC(CC(NC(=O)C(C(C)C)N(C)C(=O)C3(F)CCN(C(=O)C#CC(C)(C)N(C)C)CC3)C(=O)N3CCCC(N3)C(=O)OCC(C)(C)C2)C1 | false
CC1(O)CCCC1n1c(=O)c(C(F)F)cc2cnc(NC3CCN(S(C)(=O)=O)CC3)nc21 (stereo unspecified) + CCn1c(-c2cc(N3CCN(C)CC3)cnc2C(C)OC)c2c3cc(ccc31)-c1csc(n1)CC(NC(=O)C1CC1C)C(=O)N1CCCC(N1)C(=O)OCC(C)(C)C2 | false
C[C@@H](NC(=O)c1ncnc(N)c1Cl)c1ncc(C(=O)Nc2cc(C(F)(F)F)c(Cl)cn2)s1 + CCn1c(-c2cc(N3CCN(C)CC3)cnc2C(C)OC)c2c3cc(ccc31)-c1csc(n1)CC(NC(=O)C1CC1C)C(=O)N1CCCC(N1)C(=O)OCC(C)(C)C2 | false
CC(=O)OC12COC1CC(O)C1(C)C(=O)C(O)C3=C(C)C(OC(=O)C(O)C(NC(=O)OC(C)(C)C)c4ccccc4)CC(O)(C(OC(=O)c4ccccc4)C21)C3(C)C (stereo unspecified) + CCn1c(-c2cc(N3CCN(C)CC3)cnc2C(C)OC)c2c3cc(ccc31)-c1csc(n1)CC(NC(=O)C1CC1C)C(=O)N1CCCC(N1)C(=O)OCC(C)(C)C2 | true

As a next step, examine the compound that follows.
**Query** Quick check: viability, T/C of CC(C)NCC(C(=O)N1CCN(c2ncnc3c2C(C)CC3O)CC1)c1ccc(Cl)cc1 (stereo unspecified) + CCn1c(-c2cccnc2C(C)OC)c2c3cc(ccc31)N1CCOC(CC(NC(=O)C(C(C)C)N(C)C(=O)C3(F)CCN(C(=O)C#CC(C)(C)N(C)C)CC3)C(=O)N3CCCC(N3)C(=O)OCC(C)(C)C2)C1 under 50%?
**Result** true
